FYI, the data here is from patent US8022205B2.

Experimental Target: human PI3K(p110α/p85α) (Homo sapiens)
Assay Overview: Measurement of PI3K inhibitory activity (AlphaScreen GST Detection Kit)
Format: biochemical
Applied Conditions: 10 μM ATP, 4 μM PI(4,5)P2, read-out: Enzyme inhibitory activity (IC50, μM) PI3K α
Readout Label: IC50 (µM)

{"columns": ["Chemical String", "Measurement Unit", "Numeric Value"],
 "data": [
  ["Nc1ncc(-c2nc(N3CCOCC3)nc3c2CCN3c2ccc(CN3CCN(CCC(F)(F)F)CC3)cc2)cn1", "µM", 0.21]
]}

I = Nc1ncc(-c2nc(N3CCOCC3)nc3c2CCN3c2ccc(C(=O)N3CCN(c4ccncc4)CC3)cc2F)cn1
II = CCN1CCN(c2cc(F)c(NC(=O)N3CCc4c(-c5cnc(N)nc5)nc(N5CCOCC5)nc43)c(F)c2)CC1
III = Nc1ncc(-c2nc(N3CCOCC3)nc3c2CCN3c2ccc(CN3CCN(CCF)CC3)cc2)cn1
### Prompt List by increasing IC50. Answer format: the labels, in the requested order.
### Response I, II, III
(I: 0.008 µM, II: 0.022 µM, III: 0.26 µM)

----------
Test system: human prostate cancer cell line PC3
Assay Overview: Cell proliferation inhibitory activity (Cell Counting Kit-8), prostate cancer PC3
Type: cell-based
Applied Conditions: 96 h, PC3, 4 days
Reported inhibition at 2.5 µM is given for each of the following compounds.
Write down the numeric answer in % and omit the unit.

Consider the reported inhibition at 2.5 µM for these compounds:
{"columns": ["Chemical String", "Experimental Target", "Measurement Unit", "inhibition at 2.5 µM"],
 "data": [
  ["Cc1ccc(C(=O)N2CCN(C)CC2)cc1NC(=O)N1CCc2c(-c3cnc(N)nc3)nc(N3CCOCC3)nc21", "human prostate cancer cell line PC3", "%", 95],
  ["OCc1cc(-c2nc(N3CCOCC3)nc3c2CCN3c2ccncc2)ccc1F", "human prostate cancer cell line PC3", "%", 61],
  ["Nc1ncc(-c2nc(N3CCOCC3)nc3c2CCN3c2ccc(C(=O)N3CCN(c4ccncc4)CC3)cc2)cn1", "human prostate cancer cell line PC3", "%", 96],
  ["Nc1ncc(-c2nc(N3CCOCC3)nc3c2CCN3c2ccc(C(=O)NCc3ccncc3)cc2)cn1", "human prostate cancer cell line PC3", "%", 72],
  ["Nc1ncc(-c2nc(N3CCOCC3)nc3c2CCN3c2ccc(C(=O)N3CCOCC3)cc2F)cn1", "human prostate cancer cell line PC3", "%", 79],
  ["CN1CCN(C(=O)c2ccc(NC(=S)N3CCc4c(-c5cnc(N)nc5)nc(N5CCOCC5)nc43)cc2)CC1", "human prostate cancer cell line PC3", "%", 37]
]}

### Prompt Read the entry Cc1cc(C(=O)N2CCOCC2)ccc1N1CCc2c(-c3cnc(N)nc3)nc(N3CCOCC3)nc21 and write its reported inhibition at 2.5 µM.
### Response 71

----------
Experimental Target: human PI3K(p110α/p85α) (Homo sapiens)
Assay Overview: Measurement of PI3K inhibitory activity (AlphaScreen GST Detection Kit)
Type: biochemical
Applied Conditions: 10 μM ATP, 4 μM PI(4,5)P2, read-out: Enzyme inhibitory activity (IC50, μM) PI3K α
Readout Label: IC50 (µM)

Consider the reported IC50 for these compounds:
{"columns": ["Chemical String", "Measurement Unit", "IC50"],
 "data": [
  ["CN(C)CCCNc1cc(N2CCc3c(-c4cccc(O)c4)nc(N4CCOCC4)nc32)ccn1", "µM", 0.02],
  ["CN1CCN(C(=O)c2ccc(NC(=S)N3CCc4c(-c5cnc(N)nc5)nc(N5CCOCC5)nc43)cc2)CC1", "µM", 0.011],
  ["Nc1ncc(-c2nc(N3CCOCC3)nc3c2CCN3c2ccc(C(=O)N3CCN(c4cccnc4)CC3)cc2F)cn1", "µM", 0.01],
  ["Nc1ncc(-c2nc(N3CCOCC3)nc3c2CCN3C(=O)Nc2ccc(NCCN3CCOCC3)cc2)cn1", "µM", 0.007]
]}

P = CCN1CCN(C(=O)c2ccc(N3CCc4c(-c5cnc(N)nc5)nc(N5CCOCC5)nc43)cn2)CC1
Q = CCNC(=O)N1CCc2c(-c3cnc(N)nc3)nc(N3CCOCC3)nc21
### Prompt Sorting by IC50 in descending order, would P or Q appear first? Answer by quoting the chosen item's label.
### Response Q

----------
Test system: human prostate cancer cell line PC3
Assay Overview: Cell proliferation inhibitory activity (Cell Counting Kit-8), prostate cancer PC3
Type: cell-based
Applied Conditions: 96 h, PC3, 4 days
Structures can show the parent of a compound that is named as a salt.
Readout Label: inhibition at 2.5 µM (%)
Write down the numeric answer in % and omit the unit.

Consider the reported inhibition at 2.5 µM for these molecules:
{"columns": ["Molecule", "Experimental Target", "Readout Label", "Numeric Value"],
 "data": [
  ["Nc1ncc(-c2nc(N3CCOCC3)nc3c2CCN3c2ccc(C(=O)N3CCC(N4CCOCC4)CC3)cc2)cn1 [Example D-307]", "human prostate cancer cell line PC3", "inhibition at 2.5 µM", 89],
  ["CS(=O)(=O)Nc1cccc(N2CCc3c(-c4cccc(O)c4)nc(N4CCOCC4)nc32)c1 [Example A-48, trifluoroacetic acid salt]", "human prostate cancer cell line PC3", "inhibition at 2.5 µM", 62],
  ["Nc1ncc(-c2nc(N3CCOCC3)nc3c2CCN3c2ccc(CC(=O)N3CCNCC3)cc2)cn1 [Example D-172]", "human prostate cancer cell line PC3", "inhibition at 2.5 µM", 86],
  ["Nc1ncc(-c2nc(N3CCOCC3)nc3c2CCN3c2ccc(C(=O)N3CCN(c4cccnc4)CC3)cc2F)cn1 [Example D-21]", "human prostate cancer cell line PC3", "inhibition at 2.5 µM", 100],
  ["CCN1CCN(c2cc(N3CCc4c(-c5cnc(N)nc5)nc(N5CCOCC5)nc43)ccn2)CC1 [Example H-34]", "human prostate cancer cell line PC3", "inhibition at 2.5 µM", 91]
]}

### Prompt Read the entry CN(C)CCOc1cc(N2CCc3c(-c4cnc(N)nc4)nc(N4CCOCC4)nc32)ccn1 [Example H-32] and write its reported inhibition at 2.5 µM.
### Response 89

### Prompt Read the entry c1cc(N2CCc3c(-c4ccc5[nH]cnc5c4)nc(N4CCOCC4)nc32)ccn1 [Example B-22] and write its reported inhibition at 2.5 µM.
### Response 22

----------
Experimental Target: human PI3K(p110α/p85α) (Homo sapiens, UniProt P42336)
Sequence (P42336 whole entry): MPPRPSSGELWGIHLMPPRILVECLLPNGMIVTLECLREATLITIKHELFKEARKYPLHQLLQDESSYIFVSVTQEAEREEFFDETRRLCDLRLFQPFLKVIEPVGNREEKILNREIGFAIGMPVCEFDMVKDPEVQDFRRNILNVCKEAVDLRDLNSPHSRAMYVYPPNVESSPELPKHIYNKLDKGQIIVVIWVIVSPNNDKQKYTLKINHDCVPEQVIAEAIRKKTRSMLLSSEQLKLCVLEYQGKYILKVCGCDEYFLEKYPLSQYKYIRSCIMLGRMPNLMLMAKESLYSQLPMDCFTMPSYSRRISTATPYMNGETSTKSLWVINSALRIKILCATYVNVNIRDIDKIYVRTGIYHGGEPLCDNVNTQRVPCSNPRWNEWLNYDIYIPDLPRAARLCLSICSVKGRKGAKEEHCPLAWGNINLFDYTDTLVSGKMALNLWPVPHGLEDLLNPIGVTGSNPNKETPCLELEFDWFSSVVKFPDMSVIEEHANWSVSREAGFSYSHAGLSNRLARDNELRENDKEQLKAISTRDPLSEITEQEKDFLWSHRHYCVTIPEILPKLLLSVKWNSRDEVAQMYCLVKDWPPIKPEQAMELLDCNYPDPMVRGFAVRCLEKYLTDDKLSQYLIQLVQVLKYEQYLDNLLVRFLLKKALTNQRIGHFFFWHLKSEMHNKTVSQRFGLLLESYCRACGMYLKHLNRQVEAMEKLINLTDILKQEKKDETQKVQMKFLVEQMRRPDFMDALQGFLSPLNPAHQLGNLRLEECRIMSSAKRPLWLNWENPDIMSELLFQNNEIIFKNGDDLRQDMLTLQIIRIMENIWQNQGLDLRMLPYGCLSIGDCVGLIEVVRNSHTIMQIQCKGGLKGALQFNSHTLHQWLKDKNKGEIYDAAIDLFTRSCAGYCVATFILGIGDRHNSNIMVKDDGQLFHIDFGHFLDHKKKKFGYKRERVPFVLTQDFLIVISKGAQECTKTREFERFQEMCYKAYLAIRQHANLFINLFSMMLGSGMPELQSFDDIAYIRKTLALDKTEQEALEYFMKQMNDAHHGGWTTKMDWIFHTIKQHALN
Sequence (P27986 whole entry partner): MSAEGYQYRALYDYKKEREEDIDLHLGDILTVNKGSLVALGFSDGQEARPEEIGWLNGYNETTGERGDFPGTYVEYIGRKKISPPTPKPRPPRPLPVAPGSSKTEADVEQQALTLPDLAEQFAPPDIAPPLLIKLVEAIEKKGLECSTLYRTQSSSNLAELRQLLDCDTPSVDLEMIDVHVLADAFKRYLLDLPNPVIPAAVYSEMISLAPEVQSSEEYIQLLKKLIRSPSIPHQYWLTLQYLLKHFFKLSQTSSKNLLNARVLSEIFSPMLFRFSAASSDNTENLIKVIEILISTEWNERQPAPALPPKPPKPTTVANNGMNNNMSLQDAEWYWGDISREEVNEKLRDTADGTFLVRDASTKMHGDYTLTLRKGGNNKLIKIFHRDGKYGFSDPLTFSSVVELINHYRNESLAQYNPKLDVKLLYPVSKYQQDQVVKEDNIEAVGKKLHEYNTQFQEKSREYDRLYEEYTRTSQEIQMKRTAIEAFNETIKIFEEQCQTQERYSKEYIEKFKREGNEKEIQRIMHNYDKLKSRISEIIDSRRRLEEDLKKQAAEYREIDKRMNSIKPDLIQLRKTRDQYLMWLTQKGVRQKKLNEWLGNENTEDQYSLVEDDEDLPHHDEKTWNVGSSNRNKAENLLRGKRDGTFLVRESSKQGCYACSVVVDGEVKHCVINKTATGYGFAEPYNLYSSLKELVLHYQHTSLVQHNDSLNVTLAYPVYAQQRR
Assay Overview: Measurement of PI3K inhibitory activity (AlphaScreen GST Detection Kit)
Assay type: biochemical
Applied Conditions: 10 μM ATP, 4 μM PI(4,5)P2, read-out: Enzyme inhibitory activity (IC50, μM) PI3K α
Structures can show the parent of a compound that is named as a salt.
Readout Label: IC50 (µM)

{"columns": ["Compound", "Experimental Target", "Measurement Unit", "IC50"],
 "data": [
  ["Oc1cccc(-c2nc(N3CCOCC3)nc3c2CCN3c2ccnc(N3CCOCC3)c2)c1", "human PI3K(p110α/p85α) (Homo sapiens, UniProt P42336)", "µM", 0.05],
  ["Nc1ccc(-c2nc(N3CCOCC3)nc3c2CCN3c2ccncc2)cn1", "human PI3K(p110α/p85α) (Homo sapiens, UniProt P42336)", "µM", 0.24]
]}

A = CNC(=S)N1CCc2c(-c3cccc(O)c3)nc(N3CCOCC3)nc21 [Example C-55, trifluoroacetic acid salt]
B = CCN1CCN(C(=O)c2cc(F)c(NC(=O)N3CCc4c(-c5cnc(N)nc5)nc(N5CCOCC5)nc43)c(F)c2)CC1
### Prompt Hello, I am sorting some records. Could you say if A or B has the smaller IC50 value? Answer by quoting the chosen item's label.
### Response B
(B: 0.034 µM, A: 0.05 µM)

----------
Experimental Target: human PI3K(p110α/p85α) (Homo sapiens)
Assay Overview: Measurement of PI3K inhibitory activity (AlphaScreen GST Detection Kit)
Format: biochemical
Applied Conditions: 10 μM ATP, 4 μM PI(4,5)P2, read-out: Enzyme inhibitory activity (IC50, μM) PI3K α
Readout Label: IC50 (µM)

Consider the reported IC50 for these compounds:
{"columns": ["Compound", "Measurement Unit", "IC50"],
 "data": [
  ["Cc1ccc(N2CCOCC2)cc1NC(=O)N1CCc2c(-c3cnc(N)nc3)nc(N3CCOCC3)nc21 [Example D-237]", "µM", 0.005],
  ["Nc1ncc(-c2nc(N3CCOCC3)nc3c2CCN3c2ccc(C(=O)N3CCOCC3)cc2F)cn1 [Example D-22]", "µM", 0.042],
  ["CCN1CCN(c2cc(N3CCc4c(-c5cnc(N)nc5)nc(N5CCOCC5)nc43)ccn2)CC1 [Example H-34]", "µM", 0.011],
  ["Nc1ncc(-c2nc(N3CCOCC3)nc3c2CCN3C(=O)Nc2ccc(C(=O)N3CCOCC3)cc2)cn1 [Example D-104]", "µM", 0.006],
  ["CCN1CCN(c2ccc(C)c(NC(=S)N3CCc4c(-c5cnc(N)nc5)nc(N5CCOCC5)nc43)c2)CC1 [Example D-290]", "µM", 0.009]
]}

a = Cc1ccc(C(=O)N2CCN(C)CC2)cc1NC(=O)N1CCc2c(-c3cnc(N)nc3)nc(N3CCOCC3)nc21 [Example D-223]
b = Nc1ncc(-c2nc(N3CCOCC3)nc3c2CCN3c2cccnc2)cn1 [Example B-02]
### Prompt Sorting by IC50 in descending order, would a or b appear first? Answer by quoting the chosen item's label.
### Response b
